Below are pIC50 values for Tyrosine-protein kinase JAK2 (Homo sapiens) collected from several publications.
pIC50: −log10 of the molar value.
reported.metric: pIC50

> print(dat)
                    structure.smiles.string  measured.result
1  N#CCC1(n2cc(-c3ncnc4[nH]ccc34)cn2)CN(C2CCN(C(=O)Nc3c(Cl)cccc3Cl)CC2)C1     7.30 to 8.00
2  N#CCC1(n2cc(-c3ncnc4[nH]ccc34)cn2)CN(C2CCN(Cc3ccc(C#N)c(F)c3)CC2)C1     7.00 to 7.30
3  CNC(=O)c1ccnc(-c2cnc3[nH]ccc3c2N[C@@H]2CCCN(C(=O)CC#N)C2)c1     7.00 to 8.00
4  N#CCC1(n2cc(-c3ncnc4[nH]ccc34)cn2)CN(C2CCN(C(=O)Nc3cc(F)ccc3F)CC2)C1           ≥ 8.00
5  CC#CCN1CC(CC#N)(n2cc(-c3nc(-c4cnn(C)c4)cc4nccn34)cn2)C1           < 6.00
6  COc1ccc2nc(Cl)c(CN3CCC(N4CC(CC#N)(n5cc(-c6ncnc7[nH]ccc67)cn5)C4)CC3)cc2c1     7.30 to 8.00
7  N#CCC1(n2cc(-c3ccnc4[nH]ccc34)cn2)CN(C2CCN(C(=O)Nc3ccc(C#N)cc3C(F)(F)F)CC2)C1           < 7.00
